Listed here: items and their measured EC50, CreLuc assay, 0.5% hP.
Target: T1, human neuropeptide Y2 (NPY2) receptor (human, UniProt P49146 1-381)
T1 sequence (looked up): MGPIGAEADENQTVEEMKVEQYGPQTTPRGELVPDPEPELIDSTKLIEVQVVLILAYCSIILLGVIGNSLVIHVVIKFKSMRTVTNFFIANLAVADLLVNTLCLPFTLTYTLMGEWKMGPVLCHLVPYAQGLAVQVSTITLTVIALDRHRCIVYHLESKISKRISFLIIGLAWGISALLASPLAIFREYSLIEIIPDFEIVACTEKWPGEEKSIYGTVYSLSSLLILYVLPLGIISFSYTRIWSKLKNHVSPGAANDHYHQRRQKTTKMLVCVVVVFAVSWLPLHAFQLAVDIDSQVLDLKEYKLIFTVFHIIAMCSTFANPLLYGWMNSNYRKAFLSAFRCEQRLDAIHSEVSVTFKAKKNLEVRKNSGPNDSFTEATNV
Experiment: cell-based or functional assay
Starred links: 1 amine or outer side, 2 acyl side, 3 side chain; linkers in the order of their positions; H or OH if unused. Non-standard residues stand in square brackets, D forms with d. Groups on a side chain read outwards from the residue. No end group written: not given here. *: point of attachment. C20 diacid = O=C(O)CCCCCCCCCCCCCCCCCCC(=O)*; C18 diacid = O=C(O)CCCCCCCCCCCCCCCCC(=O)*; γGlu = O=C(O)[C@H](CCC(=O)[*:2])N[*:1]; εLys = N[C@@H](CCCCN[*:1])C(=O)[*:2]; AEEA = NCCOCCOCC(=O)O; Aib = CC(C)(N)C(=O)O
Measurement kind: EC50, CreLuc assay, 0.5% hP

>>> observed("YXEGTFTSDYSIXLEKQAQXAFVQWLIKGGPESPASLRHYYNWLTRQRY (Aib at 2, 13, 20; K28 side chain: C20DA-gGlu-gGlu-gGlu-gGlu-gGlu; C-terminal NH2) [Compound 11]")
"10.3 nM"
>>> observed("Y[Aib]EGTFTSDYSI[Aib]LEEQAQ[Aib]AFVQWLIK([εLys-γGlu-γGlu-γGlu-γGlu-γGlu-C20 diacid])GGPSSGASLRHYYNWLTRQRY-NH2 (also: TFA salt) [Compound 34]")
"14.6 nM"
>>> observed("Y[Aib]EGTFTSDYSI[Aib]LEKQAQ[Aib]AFVQWLIK([εLys-Glu-Glu-Glu-Glu-Glu-C18 diacid])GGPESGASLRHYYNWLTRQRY-NH2 (also: TFA salt) [Compound 63]")
"15.2 nM"
>>> observed("YXEGTFTSDYSIXLEXEAQXKFVEWLIKGGPSSGASLRHYYNWLTRQRY (Aib at 2, 13, 16, 20; K28 side chain: C20DA-gGlu-gGlu-gGlu-gGlu-gGlu-gGlu-eLys; C-terminal NH2) [Compound 16]")
"28.8 nM"
>>> observed("YXDGTFTSDYSIXLEKQAQXAFVEWLIKGGPSSGASLRHYYNWLTRQRY (Aib at 2, 13, 20; K28 side chain: C20DA-gGlu-gGlu-gGlu-gGlu-gGlu-gGlu-eLys; C-terminal NH2) [Compound 87]")
"20.7 nM"
>>> observed("YXEGTFTSDYSIXLEKQAQXAFVEWLIKGGPSSGASLRHYYNRXTRQRY (Aib at 2, 13, 20, 44; K28 side chain: C20DA-gGlu-gGlu-gGlu-gGlu-gGlu-gGlu-eLys; C-terminal NH2) [Compound 68]")
"53.9 nM"
>>> observed("Y[Aib]EGTFTSDYSI[Aib]LEKQAQ[Aib]AFVEWLIKGGPSSGAS[Aib]RHYYNR[Aib]TRQRY-NH2 (not fully specified (residue 28); also: TFA salt) [Compound 13]")
"9.54 nM"
>>> observed("YXEGTFTSDYSIXLEAAKQXAFVEWLIKGGPSSGASLRHYYNWLTRQRY (Aib at 2, 13, 20; K28 side chain: C20DA-gGlu-gGlu-gGlu-gGlu-gGlu-gGlu-eLys; C-terminal NH2) [Compound 25]")
"13 nM"
>>> observed("Y[Aib]EGTFTSDYSI[Aib]LEKQAQ[Aib]AFVQWLIK([AEEA-AEEA-Glu-Glu-Glu-Glu-C18 diacid])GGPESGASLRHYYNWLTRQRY-NH2 (also: TFA salt) [Compound 52]")
"18.7 nM"
>>> observed("Y[Aib]EGTFTSDYSI[Aib]LEKQAQ[Aib]AFVQWLIK([εLys-γGlu-γGlu-γGlu-γGlu-γGlu-C20 diacid])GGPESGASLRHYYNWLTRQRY-NH2 (also: TFA salt) [Compound 61]")
"6.25 nM"
>>> observed("YXEGTFTSDYSIXLEKQAQXAFVEWLIKGGPSSYVSLRHYYNWLTRQRY (Aib at 2, 13, 20; K28 side chain: C20DA-gGlu-gGlu-gGlu-gGlu-gGlu-gGlu-eLys; C-terminal NH2) [Compound 40]")
"11.9 nM"
>>> observed("YXEGTFTSDYSIXLEKQAQXAFVEWLIKGGPSSPESXRHYYNWLTRQRY (Aib at 2, 13, 20, 37; K28 side chain: C20DA-gGlu-gGlu-gGlu-gGlu-gGlu-gGlu-eK; C-terminal NH2) [Compound 10]")
"18.2 nM"
>>> observed("Y[Aib]EGTFTSDYSI[Aib]LEKQAQ[Aib]EFVQWLIKGGPSSGASLRHYYNWLTRQRY-NH2 (not fully specified (residue 28); also: TFA salt) [Compound 28]")
"10.3 nM"
>>> observed("YXEGTFTSDYSIXLEKQAQXAFVEWLIKGGPSSYVSIRHYYNWLTRQRY (Aib at 2, 13, 20; K28 side chain: C20DA-gGlu-gGlu-gGlu-gGlu-gGlu-gGlu-eLys; C-terminal NH2) [Compound 9]")
"15.2 nM"
>>> observed("Y[Aib]EGTFTSDYSI[Aib]LEKQAQ[Aib]AFVQWLIK([εLys-γGlu-γGlu-γGlu-γGlu-γGlu-C18 diacid])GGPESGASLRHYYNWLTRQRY-NH2 (also: TFA salt) [Compound 60]")
"7.43 nM"
>>> observed("Y[Aib]EGTFTSDYSI[Aib]LEKQAQ[Aib]AFVQWLIK([AEEA-AEEA-γGlu-γGlu-γGlu-γGlu-C20 diacid])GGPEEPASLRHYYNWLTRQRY-NH2 (also: TFA salt) [Compound 77]")
"13.7 nM"
>>> observed("Y[Aib]EGTFTSDYSI[Aib]LEKQAQ[Aib]AFVQWLIK([εLys-γGlu-γGlu-γGlu-γGlu-γGlu-C20 diacid])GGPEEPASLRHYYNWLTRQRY-NH2 (also: TFA salt) [Compound 67]")
"13.7 nM"
>>> observed("YXEGTFTSDYSIXLEKQAQXAFVEWLIKGGPSSPESLRHYYNWLTRQRY (Aib at 2, 13, 20; K28 side chain: C20DA-gGlu-gGlu-gGlu-gGlu-gGlu-gGlu-eLys; C-terminal NH2) [Compound 73]")
"32.2 nM"
>>> observed("YXEGTFTSDYSIXLEKQAEXAFVQWLIKGGPSSGASLRHYYNWLTRQRY (Aib at 2, 13, 20; K28 side chain: C18DA-gGlu-gGlu-gGlu-gGlu-gGlu-gGlu-eLys; C-terminal NH2) [Compound 51]")
"13.8 nM"
